Biological target: Prostaglandin G/H synthase 2 (Homo sapiens)
Sequence (P35354 whole entry): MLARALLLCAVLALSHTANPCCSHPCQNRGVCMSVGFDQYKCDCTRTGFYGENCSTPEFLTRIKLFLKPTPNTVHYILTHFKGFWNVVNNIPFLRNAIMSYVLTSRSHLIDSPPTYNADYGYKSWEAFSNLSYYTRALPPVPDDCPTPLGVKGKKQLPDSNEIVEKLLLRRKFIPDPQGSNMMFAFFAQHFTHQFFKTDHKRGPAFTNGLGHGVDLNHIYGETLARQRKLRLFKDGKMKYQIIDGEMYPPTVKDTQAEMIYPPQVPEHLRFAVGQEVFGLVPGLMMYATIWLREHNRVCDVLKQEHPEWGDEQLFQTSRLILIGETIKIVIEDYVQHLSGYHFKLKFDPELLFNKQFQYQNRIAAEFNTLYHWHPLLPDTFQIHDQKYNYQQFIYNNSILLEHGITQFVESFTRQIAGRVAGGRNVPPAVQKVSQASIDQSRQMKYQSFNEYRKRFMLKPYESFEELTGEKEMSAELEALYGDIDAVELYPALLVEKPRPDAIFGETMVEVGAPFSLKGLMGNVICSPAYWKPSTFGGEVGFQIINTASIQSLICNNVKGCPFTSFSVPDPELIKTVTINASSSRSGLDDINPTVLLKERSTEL
readout: pIC50
pIC50 is defined as minus the log10 of a concentration measured in mol/L.

Q: Input CCC(=CCN1Cc2cc(C)cc3nc(O)n(c23)C[C@@H]1C)CC , output reported pIC50.
Ans: 7.00
